system: 324938-238-R-J1-PDC complex spheroid growth, % test/control; test: Anticancer human tumor 324938-238-R-J1-PDC patient-derived bladder carcinoma cell line growth inhibition [AhR]; settings: second compound 3.16 µM; first compound 0.0316 µM; stronger effect = lower value
attribute_measured: viability, T/C

Please review the following examples before continuing.
compound	viability, T/C
CC[C@@]1(O)C(=O)OCc2c1cc1n(c2=O)Cc2cc3c(CN(C)C)c(O)ccc3nc2-1 + Cc1cncc(-c2nc(NCCc3c[nH]c4ccccc34)c3ncn(C(C)C)c3n2)c1	79%
O=C(C=Cc1cccc(S(=O)(=O)Nc2ccccc2)c1)NO + Cc1cncc(-c2nc(NCCc3c[nH]c4ccccc34)c3ncn(C(C)C)c3n2)c1	133%

### Prompt Item under review: COc1ccc([C@@H](O)c2cc(-c3ncnc4cc(N5CCOCC5)ccc34)c(F)cc2Cl)nn1 + CC(CO)NC(=O)c1cc(-c2ccc(Cl)cc2)nn(-c2cnn(C)c2)c1=O . Reported viability, T/C?
### Response 75.2%

====

system: 324938-238-R-J1-PDC complex spheroid growth, % test/control; test: Anticancer human tumor 324938-238-R-J1-PDC cell line growth inhibition [AhR]; details: second compound 10 µM; first compound 0.001 µM; stronger effect = lower value;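 also: spheroids exposed to agents for seven days before viability read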
In this section, each of the compounds is paired with its reported viability, T/C.
Give the quantity in %, number only.

Please review the following examples before continuing.
compound	viability, T/C, %
CC[C@@]1(O)C(=O)OCc2c1cc1n(c2=O)Cc2cc3c(CN(C)C)c(O)ccc3nc2-1 + Cc1ccccc1N=Nc1ccc(NC(=O)c2ccnn2C)c(C)c1	88.3
Cn1ncnc1C1c2n[nH]c(=O)c3cc(F)cc(c23)NC1c1ccc(F)cc1 (stereo unspecified) + Cc1ccccc1N=Nc1ccc(NC(=O)c2ccnn2C)c(C)c1	77.8
CC[C@@]1(O)C(=O)OCc2c1cc1n(c2=O)Cc2cc3c(CN(C)C)c(O)ccc3nc2-1 + Cc1cncc(-c2nc(NCCc3c[nH]c4ccccc34)c3ncn(C(C)C)c3n2)c1	3.61
CC[C@@]1(O)C(=O)OCc2c1cc1n(c2=O)Cc2cc3c(CN(C)C)c(O)ccc3nc2-1 + CC(CO)NC(=O)c1cc(-c2ccc(Cl)cc2)nn(-c2cnn(C)c2)c1=O	69.7
Cn1ncnc1C1c2n[nH]c(=O)c3cc(F)cc(c23)NC1c1ccc(F)cc1 (stereo unspecified) + Cc1cncc(-c2nc(NCCc3c[nH]c4ccccc34)c3ncn(C(C)C)c3n2)c1	12.6

### Prompt Find viability, T/C (324938-238-R-J1-PDC complex spheroid growth, % test/control) for the entry Cn1ncnc1C1c2n[nH]c(=O)c3cc(F)cc(c23)NC1c1ccc(F)cc1 (stereo unspecified) + CC(CO)NC(=O)c1cc(-c2ccc(Cl)cc2)nn(-c2cnn(C)c2)c1=O
### Response 65.8

====

test system: 324938-238-R-J1-PDC complex spheroid growth, % test/control; test: Anticancer human tumor 324938-238-R-J1-PDC cell line growth inhibition [AhR]; conditions: curve of first compound; second compound 3.16 µM;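 also: spheroids exposed to agents for seven days before viability read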
pIC50: −log10 of the molar value.
attribute_measured: pIC50

Please review the following examples before continuing.
compound	attribute_measured	result
NS(=O)(=O)OCC1CC(n2ccc3c(NC4CCc5ccccc54)ncnc32)CC1O (stereo unspecified) + Cc1cncc(-c2nc(NCCc3c[nH]c4ccccc34)c3ncn(C(C)C)c3n2)c1	pIC50	5.07
Cn1ncnc1C1c2n[nH]c(=O)c3cc(F)cc(c23)NC1c1ccc(F)cc1 (stereo unspecified) + Cc1ccccc1N=Nc1ccc(NC(=O)c2ccnn2C)c(C)c1	pIC50	< 7.00
CC1(C)CCC(CN2CCN(c3ccc(C(=O)NS(=O)(=O)c4ccc(NCC5CCOCC5)c([N+](=O)[O-])c4)c(Oc4cnc5[nH]ccc5c4)c3)CC2)=C(c2ccc(Cl)cc2)C1 + CC(CO)NC(=O)c1cc(-c2ccc(Cl)cc2)nn(-c2cnn(C)c2)c1=O	pIC50	< 5.00
CCN(c1cc(-c2ccc(CN3CCOCC3)cc2)cc(C(=O)NCc2c(C)cc(C)[nH]c2=O)c1C)C1CCOCC1 + Cc1cncc(-c2nc(NCCc3c[nH]c4ccccc34)c3ncn(C(C)C)c3n2)c1	pIC50	< 5.52
O=C(c1cc(Cc2n[nH]c(=O)c3ccccc23)ccc1F)N1CCN(C(=O)C2CC2)CC1 + CC(CO)NC(=O)c1cc(-c2ccc(Cl)cc2)nn(-c2cnn(C)c2)c1=O	pIC50	5.16
CC(C)c1c(-c2ccccc2)nc2c(C#N)c[nH]n2c1=O + Cc1ccccc1N=Nc1ccc(NC(=O)c2ccnn2C)c(C)c1	pIC50	< 5.00

### Prompt Item under review: COc1cccc2c1C(=O)c1c(O)c3c(c(O)c1C2=O)CC(O)(C(=O)CO)CC3OC1CC(N)C(O)C(C)O1 (stereo unspecified) + CC(CO)NC(=O)c1cc(-c2ccc(Cl)cc2)nn(-c2cnn(C)c2)c1=O . Reported pIC50?
### Response > 7.50

### Prompt Item under review: COc1cccc2c1C(=O)c1c(O)c3c(c(O)c1C2=O)CC(O)(C(=O)CO)CC3OC1CC(N)C(O)C(C)O1 (stereo unspecified) + Cc1cncc(-c2nc(NCCc3c[nH]c4ccccc34)c3ncn(C(C)C)c3n2)c1 . Reported pIC50?
### Response 6.74
